Test system: BJeLR
Experiment: Modulatory profiling: Alamar Blue viability, lethal compound cotreated with death modulator (EC50, AUC)
Format: cell-based, human
Conditions: BJeLR cells; lethal compound cotreated with modulator NMMA; modulatory profile value (AUC)
Label yes (1) when AUC, modulator BJ.NMMA >= -0.007; otherwise no (0).

Worked examples follow.
Input: Could you tell me if the measured AUC, modulator BJ.NMMA of CN(C)CCNC(=O)c1cc2c(s1)-c1ccc(Cl)cc1SC2 reaches -0.007 or more?
Output: yes (1)

Input: Determine whether this molecule has AUC, modulator BJ.NMMA no lower than -0.007: Cc1cc(C)c2c(=O)n(CC(=O)NCCCN3CCN(c4ccccc4F)CC3)sc2n1
Output: yes (1)

Input: Can COc1cccc(-n2nnnc2S(C)(=O)=O)c1 be said to have AUC, modulator BJ.NMMA at or above -0.007?
Output: no (0)

Input: Evaluate CCOc1ccccc1-n1c(C(C)N2CCN(C(=O)COc3ccc(Cl)cc3)CC2)nc2ccccc2c1=O (centres unmarked) [erastin, reference compound] : AUC, modulator BJ.NMMA at minimum -0.007?
Output: no (0)

We now examine a further molecule.
Input: Is reported AUC, modulator BJ.NMMA greater than or equal to -0.007 here: CC(C(NNC(=O)c1ccc(C(F)(F)F)cc1)c1ccc(Br)cc1)[N+](=O)[O-] (centres unmarked)
Output: no (0)

====

Test system: BJeLR
Test: Modulatory profiling: Alamar Blue viability, lethal compound cotreated with death modulator (EC50, AUC)
Type: cell-based, human
Conditions: BJeLR cells; lethal compound cotreated with modulator Lmin/NAD+; modulatory profile value (AUC)
# AUC, modulator BJ.Lmin/NAD+ >= 0.05 gives rule met, anything below gives rule not met

Input: Reported AUC, modulator BJ.Lmin/NAD+ at or above 0.05? CC[C@@]1(O)C(=O)OCc2c1cc1n(c2=O)Cc2cc3ccccc3nc2-1
Output: rule met

Next:
Input: Exam item: decide whether the reported AUC, modulator BJ.Lmin/NAD+ for COC(=O)[C@@H]1Cc2c([nH]c3ccccc23)C(C)(C)N1C(=O)CCl is at least 0.05.
Output: rule met

Input: Check this molecule for AUC, modulator BJ.Lmin/NAD+ at or above 0.05: C/C(=N\Nc1ncc(Cl)cc1Cl)c1ccccn1
Output: rule met

Input: Evaluate COc1cc2c(c(OC)c1OC)-c1ccc(OC)c(=O)cc1[C@@H](NC(C)=O)CC2 : AUC, modulator BJ.Lmin/NAD+ at minimum 0.05?
Output: rule met

Input: Has COC(=O)c1ccc([C@@H]2c3[nH]c4ccccc4c3C[C@@H](C(=O)OC)N2C(=O)CCl)cc1 [RSL3, reference compound] a recorded AUC, modulator BJ.Lmin/NAD+ greater than or equal to 0.05?
Output: rule met

Input: Has CC[C@]1(O)C[C@@H]2CN(CCc3c([nH]c4ccccc34)[C@@](C(=O)OC)(c3cc4c(cc3OC)N(C)[C@H]3[C@@](O)(C(=O)OC)[C@H](OC(C)=O)[C@]5(CC)C=CCN6CC[C@]43[C@@H]65)C2)C1 a recorded AUC, modulator BJ.Lmin/NAD+ greater than or equal to 0.05?
Output: rule met

====

Tested on: BJeLR
Assay: Modulatory profiling: Alamar Blue viability, lethal compound cotreated with death modulator (EC50, AUC)
Assay type: cell-based, human
Parameters: unit not given beside the values
Settings: BJeLR cells; lethal compound cotreated with modulator Co2+; modulatory profile value (AUC)
attribute measured: AUC, modulator BJ.Co2+
Answers are plain numbers.

In the examples that follow, each entry is paired with its recorded AUC, modulator BJ.Co2+.
Input: Checklist item: AUC, modulator BJ.Co2+ tested on BJeLR, entry CN(C)CCNC(=O)c1cc2c(s1)-c1ccc(Cl)cc1SC2 , value?
Output: 0.03522

Input: What measured AUC, modulator BJ.Co2+ is associated with CC1CC(C)(C)Nc2ccc(OC(=O)c3ccco3)cc21 (centres unmarked) on BJeLR?
Output: −0.1747

Input: Quick check: AUC, modulator BJ.Co2+ on BJeLR, item CN(C)CC(O)Cn1c2ccc(Cl)cc2c2cc(Cl)ccc21 (centres unmarked) ?
Output: 0.04705

Each compound below has a reported value. Please supply its AUC, modulator BJ.Co2+.
1. CC(C)C[C@H](NC(=O)[C@H](CC(C)C)NC(=O)[C@H](CC(C)C)NC(=O)OCc1ccccc1)B(O)O
2. O=S1(=O)Nc2c(ccc3cccnc23)-c2ccccc21

Output:
1: 0.1109; 2: 0.03708
